Cited source for all entries: patent US20190177417A1

# study-system: T1, Axl protein (human, UniProt P30530 26-451)
# T1 construct: extracellular domain; also called human Axl; hAxl
# T1 sequence (looked up): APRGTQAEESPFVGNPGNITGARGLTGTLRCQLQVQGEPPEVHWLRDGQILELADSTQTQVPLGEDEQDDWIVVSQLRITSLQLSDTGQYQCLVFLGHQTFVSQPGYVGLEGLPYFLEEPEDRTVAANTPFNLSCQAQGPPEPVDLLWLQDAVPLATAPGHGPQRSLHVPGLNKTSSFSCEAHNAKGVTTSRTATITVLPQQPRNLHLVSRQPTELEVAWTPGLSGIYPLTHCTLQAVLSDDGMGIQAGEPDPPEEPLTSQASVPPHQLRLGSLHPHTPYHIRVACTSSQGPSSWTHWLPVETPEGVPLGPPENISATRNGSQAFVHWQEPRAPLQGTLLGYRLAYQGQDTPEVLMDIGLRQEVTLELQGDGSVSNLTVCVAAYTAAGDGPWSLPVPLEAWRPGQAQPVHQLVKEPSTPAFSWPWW
# test: ELISA, 1:3 dilution, pH 6.0 over pH 7.4
quantity: Affinity ELISA CPE mutant ratio (1:3, pH 6.0/7.4) (ratio)
// note: answer is a bare numeric in ratio

Solved entries:
binder	numeric-result
HC-T030A (antibody, V domains shown) VH: EVQLVQSGAEVKKPGATVKISCKVSGYSFAGHTMNWIRQPPGKGLEWIGLIKPSNGGTSYNQKFKGRVTISADKSISTAYLQWSSLKASDTAMYYCAHGHYESYFAMDYWGQGTLVTVSS VL: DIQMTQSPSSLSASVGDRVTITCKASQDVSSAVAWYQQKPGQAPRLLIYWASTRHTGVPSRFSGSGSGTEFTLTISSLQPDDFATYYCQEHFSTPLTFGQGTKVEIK	1.29
HC-A106D (antibody, V domains shown) VH: EVQLVQSGAEVKKPGATVKISCKVSGYSFTGHTMNWIRQPPGKGLEWIGLIKPSNGGTSYNQKFKGRVTISADKSISTAYLQWSSLKASDTAMYYCAHGHYESYFDMDYWGQGTLVTVSS VL: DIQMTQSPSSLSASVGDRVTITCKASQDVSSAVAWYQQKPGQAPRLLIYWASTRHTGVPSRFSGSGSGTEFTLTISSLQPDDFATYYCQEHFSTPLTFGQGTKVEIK	3.39
HC-E102V (antibody, V domains shown) VH: EVQLVQSGAEVKKPGATVKISCKVSGYSFTGHTMNWIRQPPGKGLEWIGLIKPSNGGTSYNQKFKGRVTISADKSISTAYLQWSSLKASDTAMYYCAHGHYVSYFAMDYWGQGTLVTVSS VL: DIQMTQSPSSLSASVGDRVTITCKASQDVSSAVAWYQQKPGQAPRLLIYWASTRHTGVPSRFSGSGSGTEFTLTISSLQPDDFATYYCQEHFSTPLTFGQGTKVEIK	1.93
HC-E102L (antibody, V domains shown) VH: EVQLVQSGAEVKKPGATVKISCKVSGYSFTGHTMNWIRQPPGKGLEWIGLIKPSNGGTSYNQKFKGRVTISADKSISTAYLQWSSLKASDTAMYYCAHGHYLSYFAMDYWGQGTLVTVSS VL: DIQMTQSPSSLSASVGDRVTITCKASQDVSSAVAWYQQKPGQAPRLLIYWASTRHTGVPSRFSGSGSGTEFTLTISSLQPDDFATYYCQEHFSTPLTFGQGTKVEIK	3.27

Continue with the next binder.
GET /values?readout=Affinity ELISA CPE mutant ratio (1:3, pH 6.0/7.4)&item= HC-E102Y (antibody, V domains shown) VH: EVQLVQSGAEVKKPGATVKISCKVSGYSFTGHTMNWIRQPPGKGLEWIGLIKPSNGGTSYNQKFKGRVTISADKSISTAYLQWSSLKASDTAMYYCAHGHYYSYFAMDYWGQGTLVTVSS VL: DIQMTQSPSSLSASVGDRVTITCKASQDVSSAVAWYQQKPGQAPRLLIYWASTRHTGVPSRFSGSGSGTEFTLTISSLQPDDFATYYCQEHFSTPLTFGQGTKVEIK 2.61
